# assayed target: human plasma renin activity (PRA) (Homo sapiens)
# Construct: from tissue; host or cells: human plasma pool
# Sequence (P00797 67-406): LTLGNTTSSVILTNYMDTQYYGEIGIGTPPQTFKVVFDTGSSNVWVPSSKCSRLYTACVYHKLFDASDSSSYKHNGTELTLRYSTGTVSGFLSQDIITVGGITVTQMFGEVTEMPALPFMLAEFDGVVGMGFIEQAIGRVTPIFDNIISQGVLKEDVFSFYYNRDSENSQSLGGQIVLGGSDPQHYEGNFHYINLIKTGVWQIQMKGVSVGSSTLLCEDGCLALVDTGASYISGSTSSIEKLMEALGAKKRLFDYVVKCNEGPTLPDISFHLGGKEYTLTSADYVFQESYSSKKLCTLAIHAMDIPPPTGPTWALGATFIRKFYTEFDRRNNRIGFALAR
# protocol summary: Inhibition of human plasma renin activity (PRA), angiotensin I released measured by radioimmunoassay
# Assay type: biochemical
# condition description: human plasma pool, 60 minutes at 37° C., phosphate buffer pH 7.4; IC50 evaluated in mol, expressed as -log IC50
pIC50: −log10 of the molar value. Square brackets hold non-standard residues; d marks the D form. Peptide text beside a SMILES is read from it. * marks the point of attachment. ξ: configuration not given here. Propanoyl(3-(3-pyridyl)) = O=C(CCc1cccnc1)*; His(τ-Me) = Cn1cnc(C[C@H](N)C(=O)O)c1; Sta = CC(C)C[C@H](N)[C@@H](O)CC(=O)O; NHC(Me)(CH2OH)2 = CC(CO)(CO)N*; NHC(CH2OH)3 = OCC(CO)(CO)N*; ξ3Pal = NC(Cc1cccnc1)C(=O)O; Nle = CCCC[C@H](N)C(=O)O; Boc = CC(C)(C)OC(=O)*; X2 = OCC1(N*)CCCCC1; X1 = CC(C)(CO)N*
value kind: pIC50

CCCC[C@H](NC(=O)[C@H](Cc1ccccc1)NC(=O)OC(C)(C)C)C(=O)N[C@@H](CC(C)C)[C@@H](O)CC(=O)N[C@H](C(=O)NC(C)(C)CO)[C@@H](C)CC [SR 43 686] (Boc-F[Nle][Sta]I-X1) | 8.22
CC[C@H](C)[C@H](NC(=O)C[C@H](O)[C@H](CC(C)C)NC(=O)[C@H](Cc1cn(C)cn1)NC(=O)[C@H](Cc1ccccc1)NC(=O)CCc1cccnc1)C(=O)NC(C)(C)CO [SR 43 966] ({Propanoyl(3-(3-pyridyl))}-F[His(τ-Me)][Sta]I-X1) | 7.72
CC[C@H](C)[C@H](NC(=O)C[C@H](O)[C@H](CC1CCCCC1)NC(=O)[C@H](Cc1nc2ccccc2[nH]1)NC(=O)[C@H](Cc1ccccc1)NC(=O)OC(C)(C)C)C(=O)NC(C)(CO)CO | 7.44
CC[C@H](C)[C@H](NC(=O)C[C@H](O)[C@H](CC(C)C)NC(=O)[C@H](Cc1c[nH]cn1)NC(=O)[C@H](Cc1ccccc1)NC(=O)CCc1cccnc1)C(=O)NC(C)(CO)CO [SR 43 737] ({Propanoyl(3-(3-pyridyl))}-FH[Sta]I-{NHC(Me)(CH2OH)2}) | 8.67
CCCC[C@H](NC(=O)[C@H](Cc1ccccc1)NC(=O)OC(C)(C)C)C(=O)N[C@@H](Cc1ccccc1)[C@@H](O)CC(=O)N[C@H](C(=O)NC(CO)(CO)CO)[C@@H](C)CC | 8.40

I. CC[C@H](C)[C@H](NC(=O)C[C@H](O)[C@H](CC(C)C)NC(=O)C(Cc1cccnc1)NC(=O)[C@H](Cc1ccccc1)NC(=O)OC(C)(C)C)C(=O)NC(C)(CO)CO (stereo partly shown) [SR 43 763] (Boc-F[ξ3Pal][Sta]I-{NHC(Me)(CH2OH)2})
II. CCCC[C@H](NC(=O)[C@H](Cc1ccccc1)NC(=O)OC(C)(C)C)C(=O)N[C@@H](CC(C)C)[C@@H](O)CC(=O)N[C@H](C(=O)NC(CO)(CO)CO)[C@@H](C)CC [SR 44 094] (Boc-F[Nle][Sta]I-{NHC(CH2OH)3})
### Prompt Please indicate which has the smaller reported pIC50: I , or II . Provide the label of your selected option as the answer.
### Response I
(I: 7.11, II: 7.74)

I. CCCC[C@H](NC(=O)[C@H](Cc1ccccc1)NC(=O)CCc1cccnc1)C(=O)N[C@@H](Cc1ccccc1)[C@@H](O)CC(=O)N[C@H](C(=O)NC(CO)(CO)CO)[C@@H](C)CC
II. CCCC[C@H](NC(=O)[C@H](Cc1ccccc1)NC(=O)OC(C)(C)C)C(=O)N[C@@H](CC1CCCCC1)[C@@H](O)CC(=O)N[C@H](C(=O)NC(C)(CO)CO)[C@@H](C)CC
### Prompt Of I and II , whose reported pIC50 is the larger number? Provide the label of your selected option as the answer.
### Response I

a. CCCC[C@H](NC(=O)[C@H](Cc1ccccc1)NC(=O)OC(C)(C)C)C(=O)N[C@@H](CC(C)C)[C@@H](O)CC(=O)N[C@@H](C)C(=O)NC(C)(C)CO [SR 43 860] (Boc-F[Nle][Sta]A-X1)
b. CCCC[C@H](NC(=O)[C@H](Cc1ccccc1)NC(=O)OC(C)(C)C)C(=O)N[C@@H](CC(C)C)[C@@H](O)CC(=O)N[C@H](C(=O)NC1(CO)CCCCC1)[C@@H](C)CC [SR 43 799] (Boc-F[Nle][Sta]I-X2)
### Prompt Of a and b , whose reported pIC50 is the larger number? Provide the label of your selected option as the answer.
### Response b
